Data origin: patent US20110212084A1

biological target: T1, cynomolgus IgE (recombinant chimaeric D12 variable region / cynomolgus IgE constant region) (cynomolgus monkey (constant region)); assay: HTRF receptor-ligand competition, scFv titrated; Eu-cryptate cynomolgus IgE binding to human FcεRI-Fc; geomean
T1 construct: also called cyno IgE; cynomolgus IgE (in house HEK-EBNA derived)
T1 sequence (heavy, as listed by the source limits assumed, chain 1 of 2): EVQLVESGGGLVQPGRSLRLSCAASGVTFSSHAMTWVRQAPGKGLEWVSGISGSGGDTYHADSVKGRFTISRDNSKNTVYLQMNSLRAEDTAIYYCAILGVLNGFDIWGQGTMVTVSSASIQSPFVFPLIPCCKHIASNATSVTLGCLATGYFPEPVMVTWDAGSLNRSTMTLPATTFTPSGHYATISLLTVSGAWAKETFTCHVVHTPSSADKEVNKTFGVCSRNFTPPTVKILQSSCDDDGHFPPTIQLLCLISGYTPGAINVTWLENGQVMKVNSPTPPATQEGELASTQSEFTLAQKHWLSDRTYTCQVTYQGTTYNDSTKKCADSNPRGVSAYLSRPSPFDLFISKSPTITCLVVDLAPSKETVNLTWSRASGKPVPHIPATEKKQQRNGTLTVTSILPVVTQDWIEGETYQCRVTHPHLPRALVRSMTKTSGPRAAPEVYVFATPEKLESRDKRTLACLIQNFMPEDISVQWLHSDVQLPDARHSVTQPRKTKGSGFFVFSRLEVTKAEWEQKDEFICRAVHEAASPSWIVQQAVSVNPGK
T1 sequence (light, as listed by the source limits assumed, chain 2 of 2): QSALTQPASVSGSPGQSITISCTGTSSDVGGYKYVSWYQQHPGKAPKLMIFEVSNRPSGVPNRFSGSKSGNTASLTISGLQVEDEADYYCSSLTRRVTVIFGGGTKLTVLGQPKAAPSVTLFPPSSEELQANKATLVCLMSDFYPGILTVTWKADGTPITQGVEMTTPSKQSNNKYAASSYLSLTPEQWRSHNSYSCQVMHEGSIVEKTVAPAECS
recorded_endpoint: IC50

[[record]]
binder = "Antibody 19 (scFv) (scFv, V domains shown, purified scFv) VH: EVQLLESGGGLVQPGGSLRLSCAASGFTFSSYAMSWVRQAPGKGLEWVSAVSGGSGGRTYYADSVKGRFTISRDNSKNTLYLQMNSLRAEDTAVYYCARHIAVAGTRGFDYWGRGTLVTVSS VL: SFVLTQPPSVSVSPGQTASITCSGDKLGDTYASWYRQRSGQSPVLVIYQDDKRPSGIPERFSGSNSGNTATLTISRTHTMDEADYYCLAWDTRTSGAVFGGGTKLTVL"
assay_result = "197 nM"

